Tested on: A549/ATCC NSCLC
Assay: NCI-60 one-dose screen, 48 h (100 = growth as untreated, 0 = no growth, -100 = all killed)
Details: 10 µM unless noted
The panel holds about 83,000 compounds, 20% with a hit somewhere; the sample as a whole holds those more often.
For each record, write down the corresponding growth.
Your answer is read as %, so omit the unit and give the number.

Which growth value belongs to Oc1ccc(Cl)cc1Sc1cc(Cl)ccc1O ?
95.5

Quick one: growth of c1coc(CSc2ncnc3nc[nH]c23)c1 ?
101

State the recorded growth for this entry: O=C(CSc1nnc(-c2ccc(Cl)cc2)o1)Nc1ccc(C(=O)/C=C/c2ccccc2)cc1
96

What does the record list as growth for O=C(O)c1cc2ccccc2cc1Nc1ccccc1 ?
87.6

Look up growth: O=c1c2ccccc2[nH]n1Cc1ccc2c(c1)OCO2
99.6

# query: growth of entry CS(=O)(=O)Nc1cccc(-c2ccc3ncnc(Nc4ccc(F)c(Cl)c4)c3c2)c1
25.3

Which value of growth has been reported for CCCC(C)(C)COC(=O)c1cccc(N)c1 in the records?
89.7

Please report the recorded growth for Nc1nccc2c1ccn2-c1ccc(NC(=O)Nc2cccc(C(F)(F)F)c2)cc1 .
91.3

Could you share which growth value was measured for c1ccc2nc(Cn3cc[n+](Cc4ccc5ccccc5n4)c3)ccc2c1 ?
77.5

Field request: growth | item: O=C1CN(CCN2CC(=O)NC(=O)C2)CC(=O)N1
101

Reported growth for CC(C)(C)OC(=O)N1CCN(CCn2cc(C(F)(F)F)c3c(Cl)ncnc32)CC1 : what is it?
96

Query: growth; subject: O=C1OC(c2ccc(-c3ccccc3)cc2)=C/C1=C/C=C/c1ccccc1
9.59

# input compound: CC/C(=C(\CC)c1ccc(OCCN(CC)CC)cc1)c1ccc(OCCN(CC)CC)cc1 ; wanted: its growth
37.1

Dear colleague, I am looking for the recorded growth of the following compound: COc1ccc(-c2ccc(NC(=O)Nc3cccc(C(F)(F)F)c3)c(C)n2)cc1
42.5

Which growth is listed for O=C(O)c1cccc(S(=O)(=O)c2ccccc2)c1 ?
102

Tell me the measured growth of Cc1cccc(CC(=O)c2ccccc2)n1 , please.
74.2

// lookup growth for COc1ccccc1S(=O)(=O)Nc1ccc2c3c(cc(-c4cnn(C5CC5)c4)nc13)C(=O)N2C
66.4

Requested read-out: growth. Entry: CC(=O)N1N=C(CCC(=O)c2nc3ccc([N+](=O)[O-])cc3[nH]2)OC1c1ccc(O)cc1 (configuration not stated)
106

Fill in: growth of COc1ccc2c(-c3ccc(F)cc3)c(C#N)c(=NC(C)=O)oc2c1 is ___
53.4

Fill in: growth of CCOc1cccc(Nc2nc(N)nc3[nH]c4ccc(O)cc4c23)c1 is ___
46.6

What value of growth has been reported for the following compound? S=c1[nH]nc(Cn2c3ccccc3c3ccncc32)o1
90.7

# growth lookup, item CN(C)c1ccc2cc(-c3nc4ccccc4s3)c(N)nc2c1
28.3

Give its growth value. Item: O=C(Nc1ccc(-n2ccc3c(NC(=O)c4ccccc4)nccc32)cc1)Nc1cccc(C(F)(F)F)c1
7.66

Given the compound O=C(C[n+]1cccc(Br)c1)c1ccc2c(c1)CCCC2 , what is its reported growth?
95.9

Any idea what its growth is? The compound is Cn1cnc([N+](=O)[O-])c1N1c2ccncc2Sc2ccncc21
104

Value lookup for growth; key = O=C(NCCNc1nccc(-c2c(-c3cccc(O)c3)nc3sccn23)n1)c1ccccc1
56.3

Value lookup for growth; key = CCOC(=O)c1noc2c1CCc1cn(Cc3cc(OC)cc(OC)c3)cc1-2
103

What does the record list as growth for CCOC(=O)C(C)(CSSCC(C)(NC(=O)c1ccc2ccccc2c1)C(=O)OCC)NC(=O)c1ccc2ccccc2c1 (configuration not stated) ?
26.4

So what's the measured growth for this one? COc1cccc(C2CC(c3cc(OC)c(OC)c(OC)c3)=NN2)c1 (configuration not stated)
84.4

Entry under review: O=[N+]([O-])c1ccc(NS(=O)(=O)c2cc(Cl)ccc2Cl)c2ccccc12 . Reported growth?
89.5

Name the reported growth value associated with the compound O=C(Nc1ccc(-n2ccc3c(NC(=O)c4ccccc4)nccc32)cc1)c1ccc(Cl)c(C(F)(F)F)c1
-29.9

Give the measured growth of COc1cc2nc(C(=O)N3CCCCC3)cc(Nc3ccccc3)c2cc1OC .
98.1

Consider the compound shown here: O=C(Cn1c2ccccc2c2ccncc21)N/N=C/c1cc(O)c(O)c(O)c1 What is its recorded growth?
101

What value of measured growth is listed for O=C(Nc1ccc(-n2cc(-c3ccncc3)c(-c3ccc(O)c(Cl)c3)n2)cc1)Nc1cccc(Cl)c1Cl ?
38.9

Quick one: growth of O=C(Nc1ccc(-n2ccc3c(NC(=O)c4ccccc4)ncnc32)cc1)Nc1ccc(Cl)c(C(F)(F)F)c1 ?
-62.9

Which value of growth has been reported for Cc1cccc(NCS(=O)(=O)O)c1 in the records?
75

For the compound Nc1ncnc2c1c(-c1ccc(Oc3ccccc3)cc1)nn2C[C@@H]1SSC[C@H]1O , what growth is on record?
21.4

Would you mind telling me what growth value was observed for COc1cc(/C=C/C(=O)N2CCC=CC2=O)cc(OC)c1OC ?
72.3

Data request, read-out growth, for COc1ccc(-c2cnc(-c3ccc(F)cc3)[nH]2)cc1
-55.7

Reported growth for COc1ccc(C(=O)NC(=O)Nc2ccc3c(c2)NC(=O)/C3=C\c2[nH]c(C)c(CCC(=O)O)c2C)c(F)c1 : what is it?
7.84

Field request: growth | item: N#CC1=C(N)Oc2c(ccc3ccccc23)C1c1cc(=O)oc2ccc(Cl)cc12 (configuration not stated)
26.6

Any idea what growth was measured for C=C1C(=O)O[C@H]2[C@H]1CC/C(COC(=O)c1ccc3ccccc3c1)=C\CC[C@@]1(C)O[C@@H]21 ?
-52.7

Where these numbers come from: PubChem BioAssay (NCI)
